- Test system: expanded OPCs
- Procedure Details: cells
- Applied Conditions: Rattus norvegicus, 72 h, read-out: 10 µM (% DMSO), alamarBlue viability of expanded OPCs, compound at 10 µM, sheet All Tox data
- Description: Having established a consistent assay for measuring OL differentiation in vitro, the next step was to utilize this assay to assess the ability of a wide array of compounds to promote OL differentiation. Prior to library screening, we first established the maximum non-toxic dose of each compound in the library. […] Three days later, we assessed viability of the treated cells by measuring AlamarBlue fluorescence, a measure of cell viability (see “Methods” section). […]
Where a name gives a salt, the structure may show the parent alone.
Quick list: viability at 10 µM per entry.
A number alone suffices; assume %.

Study these solved cases before continuing.
COc1ccccc1OCCNCC(O)COc1cccc2[nH]c3ccccc3c12 (centres unmarked) : 12
Cc1nc2n(c(=O)c1CCN1CCC(c3noc4cc(F)ccc34)CC1)CCCC2 : 90.2
CC[C@@H]1C=CC=CC[C@H](C)[C@@H](O)[C@@H](C)C(=O)[C@H](C)[C@@H](O)[C@H](C)C(=O)[C@H](C)[C@@H](O)[C@H](C)C=CC(=O)O[C@H]2[C@@H](C)[C@@H](CC1)O[C@@]1(CC[C@@H](C)[C@@H](C[C@H](C)O)O1)[C@@H]2C : 68.4
C[C@H]1COc2c(C3(N)CC3)c(F)cc3c(=O)c(C(=O)O)cn1c23 : 104
NC(=O)OCCCc1ccccc1 [Phenprobamate] : 92.7
CCOC(=O)c1ccc(OC(=O)CCCCCNC(=N)N)cc1 [Gabexate] : 123
CCCCc1nc(Cl)c(CO)n1Cc1ccc(-c2ccccc2-c2nn[nH]n2)cc1 : 102
CN1CCC(=C2c3ccccc3CCc3sccc32)CC1 : 24.6

Please list viability at 10 µM recorded for the compound CN1CCCCC1CCN1c2ccccc2Sc2ccc([S+](C)[O-])cc21 (centres unmarked)
28.3

Please list viability at 10 µM recorded for the compound CC(C)c1nc(CN(C)C(=O)N[C@H](C(=O)N[C@@H](Cc2ccccc2)C[C@H](O)[C@H](Cc2ccccc2)NC(=O)OCc2cncs2)C(C)C)cs1
69.8

Please list viability at 10 µM recorded for the compound CC(C)[C@]12O[C@H]1[C@@H]1O[C@]13[C@]1(O[C@H]1C[C@H]1C4=C(CC[C@@]13C)C(=O)OC4)[C@@H]2O [Triptolide]
13.7

Please list viability at 10 µM recorded for the compound COC(=O)C1=C(C)NC(C)=C(C(=O)OCC(C)C)C1c1ccccc1[N+](=O)[O-] (centres unmarked)
11.4

Please list viability at 10 µM recorded for the compound N[C@@H](C(=O)N[C@@H]1C(=O)N2C(C(=O)O)=C(CSc3c[nH]nn3)CS[C@H]12)c1ccc(O)cc1
104

Please list viability at 10 µM recorded for the compound Cc1ccc(O)c([C@H](CCN(C(C)C)C(C)C)c2ccccc2)c1
46.5

Please list viability at 10 µM recorded for the compound O[C@@H]1CCCC[C@H]1N1CCC(c2ccccc2)CC1 (racemic) [Vesamicol, reference compound]
146

Please list viability at 10 µM recorded for the compound NC1CCN(c2nc3c(cc2F)c(=O)c(C(=O)O)cn3-c2ccc(F)cc2F)C1 (centres unmarked)
92.2

Please list viability at 10 µM recorded for the compound CN1[C@@H]2C[C@@H](OC(=O)[C@H](CO)c3ccccc3)C[C@H]1[C@@H]1O[C@@H]12 [Scopolamine hydrobromide]
88.5

Please list viability at 10 µM recorded for the compound CC(C)(C)NC(=O)[C@H]1CC[C@H]2[C@@H]3CC[C@H]4NC(=O)C=C[C@]4(C)[C@H]3CC[C@]12C [Finasteride]
85.3

Please list viability at 10 µM recorded for the compound O=c1n(CCCN2CCN(c3cccc(Cl)c3)CC2)nc2ccccn12
84.9
